Biological target: UniProt:Q8IXJ6
Test: Continuous fluorogenic sirtuin inhibition assay, SIRT2 (tBuK peptides, TB)
Format: biochemical
Conditions: inhibitor 0.032 µM; single trials
Starred links: 1 amine or outer side, 2 acyl side, 3 side chain; linkers in the order of their positions; H or OH if unused. Non-standard residues stand in square brackets, D forms with d. Residues, ends and D or L forms follow the SMILES beside them. X1 = CCCC(=S)NCCCC[C@H](N[*:1])C(=O)[*:2]
activity at 0.032 µM of 80% or higher: Y. Under 80%: N.

Examples from the recorded data:
CCCC(=S)NCCCC[C@H](NC(=O)[C@@H](NC(=O)[C@@H](NC(=O)[C@@H](N)CS)[C@@H](C)O)C(C)C)C(=O)N[C@H](C(=O)N[C@@H](CO)C(=O)N[C@@H](CC(C)C)C(N)=O)[C@@H](C)O [S2P03-tBuK] (H-CTV[X1]TSL-NH2): Y
CCCC(=S)NCCCC[C@H](NC(=O)[C@@H](NC(=O)[C@@H](NC(=O)[C@@H](N)CS)[C@@H](C)O)C(C)C)C(=O)N[C@H](C(N)=O)[C@@H](C)CC [S2P04-5-tBuK] (H-CTV[X1]I-NH2): Y
CCCC(=S)NCCCC[C@H](NC(=O)[C@@H](NC(=O)[C@@H](NC(=O)[C@H](CS)NC(C)=O)[C@@H](C)O)C(C)C)C(=O)N[C@H](C(N)=O)[C@@H](C)CC [Ac-S2P04-5-tBu] (Ac-CTV[X1]I-NH2): Y

Decide: activity at 0.032 µM of CCCC(=S)NCCCC[C@H](NC(=O)[C@@H](NC(=O)[C@@H](NC(=O)[C@H](CS)NC(=O)[C@@H](N)[C@@H](C)O)[C@@H](C)O)C(C)C)C(=O)N[C@H](C(=O)NCC(N)=O)[C@@H](C)CC [S2P04-tBuK] (H-TCTV[X1]IG-NH2) >= 80%?
N

Answer whether activity at 0.032 µM of CCCC(=S)NCCCC[C@H](NC(=O)[C@H](Cc1ccccc1)NC(=O)[C@@H](NC(=O)[C@@H](N)CS)[C@@H](C)O)C(=O)N[C@H](C(=O)N1CCC[C@H]1C(=O)N[C@H](C(N)=O)[C@@H](C)O)C(C)C [S2P07-tBuK] (H-CTF[X1]VPT-NH2) is greater than or equal to 80%.
Y

* * *

%Activity, SIRT2 values, listed per item
Target: SIRT2 (Homo sapiens, UniProt Q8IXJ6)
Sequence (Q8IXJ6 whole entry): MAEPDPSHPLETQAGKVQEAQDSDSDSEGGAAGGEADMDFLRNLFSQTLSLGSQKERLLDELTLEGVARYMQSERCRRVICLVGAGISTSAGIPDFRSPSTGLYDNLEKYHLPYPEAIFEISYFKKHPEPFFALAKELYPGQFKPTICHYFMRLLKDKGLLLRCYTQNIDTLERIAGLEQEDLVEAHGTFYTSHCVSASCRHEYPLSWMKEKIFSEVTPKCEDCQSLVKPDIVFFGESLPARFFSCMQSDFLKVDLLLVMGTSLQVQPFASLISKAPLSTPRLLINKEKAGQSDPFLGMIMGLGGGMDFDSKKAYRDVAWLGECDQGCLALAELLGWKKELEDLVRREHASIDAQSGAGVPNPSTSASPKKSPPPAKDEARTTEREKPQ
Assay: Continuous fluorogenic sirtuin inhibition assay, SIRT2 (tBuK peptides, TB)
Format: biochemical
Conditions: inhibitor 0.0064 µM; single trials; 0.0064 µM
Starred links: 1 amine or outer side, 2 acyl side, 3 side chain; linkers in the order of their positions; H or OH if unused. Non-standard residues stand in square brackets, D forms with d. Residues, ends and D or L forms follow the SMILES beside them. X1 = CCCC(=S)NCCCC[C@H](N[*:1])C(=O)[*:2]
Express your answer in %, writing the number without its unit.

In plain terms, CCCC(=S)NCCCC[C@H](NC(=O)[C@@H](NC(=O)[C@@H](NC(=O)[C@H](CS)NC(C)=O)[C@@H](C)O)C(C)C)C(=O)N[C@H](C(N)=O)[C@@H](C)CC [Ac-S2P04-5-tBu] (Ac-CTV[X1]I-NH2) has a documented %Activity, SIRT2 of 111.5

Reported %Activity, SIRT2 for CCCC(=S)NCCCC[C@H](NC(=O)[C@@H](NC(=O)[C@@H](NC(=O)[C@H](CS)NC(=O)[C@@H](N)[C@@H](C)O)[C@@H](C)O)C(C)C)C(=O)N[C@H](C(=O)NCC(N)=O)[C@@H](C)CC [S2P04-tBuK] (H-TCTV[X1]IG-NH2) was 94.59

Reported %Activity, SIRT2 for CCCC(=S)NCCCC[C@H](NC(=O)[C@@H](NC(=O)[C@@H](NC(=O)[C@@H](N)CS)[C@@H](C)O)C(C)C)C(=O)N[C@H](C(=O)N[C@@H](CO)C(=O)N[C@@H](CC(C)C)C(N)=O)[C@@H](C)O [S2P03-tBuK] (H-CTV[X1]TSL-NH2) was 108.62

Looking up CCCC(=S)NCCCC[C@H](NC(=O)[C@@H](NC(=O)[C@@H](NC(=O)[C@@H](N)CS)[C@@H](C)O)C(C)C)C(=O)N[C@H](C(N)=O)[C@@H](C)CC [S2P04-5-tBuK] (H-CTV[X1]I-NH2) , I see its %Activity, SIRT2 listed as 119.97

* * *

Target: SIRT2 (Homo sapiens)
Assay: Continuous fluorogenic sirtuin inhibition assay, SIRT2 (tBuK peptides, TB)
Format: biochemical
Details: 0.25 µM SIRT2, 1 mM NAD+, 5 µM fluorogenic substrate, 15 min preincubation, n = 2; read-out: IC50
Starred links: 1 amine or outer side, 2 acyl side, 3 side chain; linkers in the order of their positions; H or OH if unused. Non-standard residues stand in square brackets, D forms with d. Residues, ends and D or L forms follow the SMILES beside them. X1 = CCCC(=S)NCCCC[C@H](N[*:1])C(=O)[*:2]; Abu = CC[C@H](N)C(=O)O
Quantity Name: IC50 (nM)
A number alone suffices; assume nM.

CCCC(=S)NCCCC[C@H](NC(=O)[C@@H](NC(=O)[C@@H](NC(=O)[C@@H](N)CC)[C@@H](C)O)C(C)C)C(=O)N[C@H](C(N)=O)[C@@H](C)CC [S2P04(Abu)-5-tBuK] (H-[Abu]TV[X1]I-NH2): 119
CCCC(=S)NCCCC[C@H](NC(=O)[C@@H](NC(=O)[C@@H](NC(=O)[C@@H](N)CS)[C@@H](C)O)C(C)C)C(=O)N[C@H](C(N)=O)[C@@H](C)CC [S2P04-5-tBuK] (H-CTV[X1]I-NH2): 136
CCCC(=S)NCCCC[C@H](NC(=O)[C@@H](NC(=O)[C@@H](NC(=O)[C@H](CS)NC(C)=O)[C@@H](C)O)C(C)C)C(=O)N[C@H](C(N)=O)[C@@H](C)CC [Ac-S2P04-5-tBu] (Ac-CTV[X1]I-NH2): 191
CCCC(=S)NCCCC[C@H](NC(=O)[C@@H](NC(=O)[C@@H](NC(=O)[C@@H](N)CS)[C@@H](C)O)C(C)C)C(=O)N[C@H](C(=O)N[C@@H](CO)C(=O)N[C@@H](CC(C)C)C(N)=O)[C@@H](C)O [S2P03-tBuK] (H-CTV[X1]TSL-NH2): 68
CCCC(=S)NCCCC[C@H](NC(=O)OCc1ccccc1)C(=O)Nc1ccccc1 [TB, reference compound]: 3110

Query molecule follows.
The reported value for CCCC(=S)NCCCC[C@H](NC(=O)[C@H](Cc1ccccc1)NC(=O)[C@@H](NC(=O)[C@@H](N)CS)[C@@H](C)O)C(=O)N[C@H](C(=O)N1CCC[C@H]1C(=O)N[C@H](C(N)=O)[C@@H](C)O)C(C)C [S2P07-tBuK] (H-CTF[X1]VPT-NH2) in terms of IC50 is 101

* * *

Biological target: SIRT2 (Homo sapiens)
Test: Continuous fluorogenic sirtuin inhibition assay, SIRT2 (tBuK peptides, TB)
Format: biochemical
Conditions: inhibitor 0.032 µM; single trials; 0.032 µM
Starred links: 1 amine or outer side, 2 acyl side, 3 side chain; linkers in the order of their positions; H or OH if unused. Non-standard residues stand in square brackets, D forms with d. Residues, ends and D or L forms follow the SMILES beside them. X1 = CCCC(=S)NCCCC[C@H](N[*:1])C(=O)[*:2]
Quick reference for %Activity, SIRT2 among some molecules

Consider the following illustrative entries.
CCCC(=S)NCCCC[C@H](NC(=O)[C@@H](NC(=O)[C@@H](NC(=O)[C@@H](N)CS)[C@@H](C)O)C(C)C)C(=O)N[C@H](C(=O)N[C@@H](CO)C(=O)N[C@@H](CC(C)C)C(N)=O)[C@@H](C)O [S2P03-tBuK] (H-CTV[X1]TSL-NH2): 92.999%
CCCC(=S)NCCCC[C@H](NC(=O)[C@@H](NC(=O)[C@@H](NC(=O)[C@H](CS)NC(=O)[C@@H](N)[C@@H](C)O)[C@@H](C)O)C(C)C)C(=O)N[C@H](C(=O)NCC(N)=O)[C@@H](C)CC [S2P04-tBuK] (H-TCTV[X1]IG-NH2): 83.831%
CCCC(=S)NCCCC[C@H](NC(=O)[C@H](Cc1ccccc1)NC(=O)[C@@H](NC(=O)[C@@H](N)CS)[C@@H](C)O)C(=O)N[C@H](C(=O)N1CCC[C@H]1C(=O)N[C@H](C(N)=O)[C@@H](C)O)C(C)C [S2P07-tBuK] (H-CTF[X1]VPT-NH2): 67.907%

Observed %Activity, SIRT2 on SIRT2 (Homo sapiens), entry CCCC(=S)NCCCC[C@H](NC(=O)[C@@H](NC(=O)[C@@H](NC(=O)[C@@H](N)CS)[C@@H](C)O)C(C)C)C(=O)N[C@H](C(N)=O)[C@@H](C)CC [S2P04-5-tBuK] (H-CTV[X1]I-NH2) , equals 96.038%

# %Activity, SIRT2 measured on SIRT2 (Homo sapiens) for item CCCC(=S)NCCCC[C@H](NC(=O)[C@@H](NC(=O)[C@@H](NC(=O)[C@H](CS)NC(C)=O)[C@@H](C)O)C(C)C)C(=O)N[C@H](C(N)=O)[C@@H](C)CC [Ac-S2P04-5-tBu] (Ac-CTV[X1]I-NH2) = 105.63%
